test: NCI Yeast Anticancer Drug Screen. Data for the mlh1 rad18 strain (AID 175); details: S. cerevisiae mlh1 rad18 strain growth inhibition; at 50.0 µM; hits give high values
About 79,000 compounds went through this panel and 15% of them were active in at least one assay; those are over-represented in the sample as a whole.
measuredEndpoint: growth inhibition (%)
# number only, unit % dropped from output

CCCCCCC1C(=O)NC(=O)NC1=O ... -12.3

Query molecule follows.
Identify the reported growth inhibition for the following entry. CN(C)N(P(N)(Cl)(c1ccccc1)c1ccccc1)P(N)(Cl)(c1ccccc1)c1ccccc1 50.6

---

assay: NCI Yeast Anticancer Drug Screen. Data for the mlh1 rad18 strain (AID 175); details: S. cerevisiae mlh1 rad18 strain growth inhibition; at 50.0 µM (retest, dose inferred, filed as 5.0); hits give high values
The panel holds about 79,000 compounds, 15% with a hit somewhere; the sample as a whole holds those more often.
measuredEndpoint: growth inhibition (%)
Express it in %; write the number only.

Illustrative cases are given below, each with its answer.
C/C(CC(=O)Nc1ccc([N+](=O)[O-])cc1)=N\Nc1ccc([N+](=O)[O-])cc1[N+](=O)[O-] ... 36
S=C=NCCc1ccccc1 ... 15
CCC(=O)O.[Ag] ... 97
NCCCN1CCN(CCCN2CC2)CC1 ... 71
CC/C(=C/c1ccc(OC)cc1OC)[N+](=O)[O-] ... 99
O=C1C=CC(=O)C(Cl)=C1 ... 98
OC(c1ccccc1)(c1ccccc1)c1ccccn1 ... -5
O=[N+]([O-])c1ccc(Br)c([N+](=O)[O-])c1 ... 98
O=[N+]([O-])c1ccc(N(CCO)CCO)c2c1no[n+]2[O-] ... 90
C[CH2][Sn]1([CH2]C)[O]C(=O)CC(=O)[O]1 ... 24

# return recorded growth inhibition for input COc1cc(C2c3cc4c(cc3[C@@H](Nc3ccc([N+](=O)[O-])cc3)C3COC(=O)[C@H]23)OCO4)cc(OC)c1O (stereo partly specified) 96
